# assay.target: c-Kit (V654A) (Homo sapiens (Human), UniProt P10721, V654A)
# Sequence (P10721 26-976 V654A): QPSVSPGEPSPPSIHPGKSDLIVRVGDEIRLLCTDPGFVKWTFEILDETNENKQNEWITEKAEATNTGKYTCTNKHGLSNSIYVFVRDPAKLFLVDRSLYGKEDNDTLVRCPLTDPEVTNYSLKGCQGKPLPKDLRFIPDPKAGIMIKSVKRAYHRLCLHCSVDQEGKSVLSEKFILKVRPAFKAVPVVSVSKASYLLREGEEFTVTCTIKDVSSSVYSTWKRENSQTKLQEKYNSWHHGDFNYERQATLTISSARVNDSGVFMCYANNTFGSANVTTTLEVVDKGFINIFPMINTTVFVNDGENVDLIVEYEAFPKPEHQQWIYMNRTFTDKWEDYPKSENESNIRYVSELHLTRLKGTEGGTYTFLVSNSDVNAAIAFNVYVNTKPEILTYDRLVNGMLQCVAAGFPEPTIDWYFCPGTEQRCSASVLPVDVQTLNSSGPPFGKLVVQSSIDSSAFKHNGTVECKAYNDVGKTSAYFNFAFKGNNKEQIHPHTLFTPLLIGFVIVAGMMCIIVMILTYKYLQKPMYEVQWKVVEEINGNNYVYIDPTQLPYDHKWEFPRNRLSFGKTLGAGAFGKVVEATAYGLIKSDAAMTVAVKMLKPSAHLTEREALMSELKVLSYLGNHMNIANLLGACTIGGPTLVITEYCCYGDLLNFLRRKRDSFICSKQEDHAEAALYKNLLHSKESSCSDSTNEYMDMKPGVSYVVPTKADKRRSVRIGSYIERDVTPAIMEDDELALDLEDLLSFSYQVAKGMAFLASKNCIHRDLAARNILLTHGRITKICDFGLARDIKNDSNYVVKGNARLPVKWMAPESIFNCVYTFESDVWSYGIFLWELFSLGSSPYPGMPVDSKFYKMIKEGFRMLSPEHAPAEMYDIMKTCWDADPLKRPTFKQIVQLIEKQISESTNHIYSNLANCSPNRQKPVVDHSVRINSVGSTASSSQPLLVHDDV
# protocol.details: 33P-ATP kinase assay, c-Kit (V654A)
# Format: biochemical
# condition.info: 33P-ATP assay; ATP concentration 30 μM; 2 mM MnCl2 in buffer
experimental.readout: IC50

> print(dat)
                            compound.string  observed.value
1  Cc1ccc(NC(=O)c2ccc3c(c2)CC[C@@H]3N2CCN(C)CC2)cc1Nc1nccc(-c2cccnc2)n1          969 nM

----------
# Test system: acute myeloid leukaemia cell Kasumi-1
# protocol.details: MTS growth inhibition assay, Kasumi-1 cell strain
# Type: cell-based
# condition.info: Homo sapiens, MTS/PMS, 72 hours
Where a name gives a salt, the structure may show the parent alone.
experimental.readout: IC50 (nM)

> print(dat)
                                   compound  endpoint.unit  observed.value
1  Cc1cn(-c2cc(NC(=O)c3ccc(C)c(Nc4nccc(-c5cccnc5)n4)c3)cc(C(F)(F)F)c2)cn1             nM            22.3
2  Cc1ccc(NC(=O)c2ccc3c(c2)CC[C@@H]3N2CCN(C)CC2)cc1Nc1nccc(-c2cccnc2)n1 [EXAMPLE 16, sulfate]             nM            11.2

----------
# Test system: chronic myeloid leukaemia cell KU812
# protocol.details: MTS growth inhibition assay, KU812 cell strain
# Assay type: cell-based
# condition.info: MTS/PMS; 72 hours
experimental.readout: IC50 (nM)

> print(dat)
                                   compound  endpoint.unit  observed.value
1  CN[C@@H]1C[C@H]2O[C@@](C)([C@@H]1OC)n1c3ccccc3c3c4c(c5c6ccccc6n2c5c31)C(=O)NC4 [Staurosporine]             nM            9.57

----------
The following compounds are listed with their measured IC50 values.
# assay.target: PDGFR (Homo sapiens)
# Sequence (P09619 33-1106 limits assumed): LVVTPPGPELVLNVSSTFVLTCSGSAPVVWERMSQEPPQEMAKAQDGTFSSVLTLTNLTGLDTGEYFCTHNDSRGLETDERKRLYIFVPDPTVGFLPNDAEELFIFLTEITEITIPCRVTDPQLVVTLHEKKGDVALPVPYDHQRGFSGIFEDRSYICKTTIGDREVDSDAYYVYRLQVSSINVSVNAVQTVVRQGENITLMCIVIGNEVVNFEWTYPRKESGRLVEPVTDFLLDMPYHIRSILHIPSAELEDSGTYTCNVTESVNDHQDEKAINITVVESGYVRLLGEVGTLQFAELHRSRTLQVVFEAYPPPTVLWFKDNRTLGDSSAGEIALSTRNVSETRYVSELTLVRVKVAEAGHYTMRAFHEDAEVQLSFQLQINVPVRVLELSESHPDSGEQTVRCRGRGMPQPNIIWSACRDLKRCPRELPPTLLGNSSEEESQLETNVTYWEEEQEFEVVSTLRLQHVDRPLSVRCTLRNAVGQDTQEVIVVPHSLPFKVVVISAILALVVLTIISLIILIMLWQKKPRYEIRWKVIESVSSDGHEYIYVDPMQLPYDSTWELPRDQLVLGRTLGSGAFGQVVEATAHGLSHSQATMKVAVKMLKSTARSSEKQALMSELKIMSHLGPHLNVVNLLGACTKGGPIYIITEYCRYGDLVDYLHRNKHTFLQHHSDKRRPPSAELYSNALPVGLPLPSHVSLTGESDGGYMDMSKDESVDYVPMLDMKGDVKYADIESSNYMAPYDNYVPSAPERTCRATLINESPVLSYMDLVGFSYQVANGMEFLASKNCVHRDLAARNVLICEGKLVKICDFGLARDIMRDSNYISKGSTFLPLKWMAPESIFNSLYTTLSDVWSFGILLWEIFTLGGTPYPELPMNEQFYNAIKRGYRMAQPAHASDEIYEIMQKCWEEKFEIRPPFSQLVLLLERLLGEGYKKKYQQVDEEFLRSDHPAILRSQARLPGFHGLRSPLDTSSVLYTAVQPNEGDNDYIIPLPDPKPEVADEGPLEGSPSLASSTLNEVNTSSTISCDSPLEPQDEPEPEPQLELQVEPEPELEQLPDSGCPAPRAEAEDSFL
# protocol.details: Mobility Shift Assay of PDGFR kinase enzyme activity
# Assay type: biochemical
# condition.info: ATP at Km 38 μM, 5 hours at 28° C.
experimental.readout: IC50 (nM)

> print(dat)
                                   compound  endpoint.unit  observed.value
1  Cc1ccc(NC(=O)c2ccc3c(c2)CC[C@@H]3N2CCN(C)CC2)cc1Nc1nccc(-c2cncnc2)n1 [EXAMPLE 13]             nM              13
2  Cc1ccc(NC(=O)c2ccc3c(c2)CC[C@H]3N2CCN(C)CC2)cc1Nc1nccc(-c2cccnc2)n1 [EXAMPLE 12]             nM              53
3  Cc1ccc(NC(=O)c2ccc3c(c2)CCC3N2CCN(C(C)C)CC2)cc1Nc1nccc(-c2cccnc2)n1 (stereo not shown) [EXAMPLE 5]             nM              18
4  Cc1ccc(NC(=O)c2ccc3c(c2)CCC3N2CCN(C)CC2)cc1Nc1nccc(-c2cccnc2)n1 (stereo not shown) [EXAMPLE 1]             nM              17
5  Cc1ccc(NC(=O)c2ccc3c(c2)CCC3N2CC[C@H](N(C)C)C2)cc1Nc1nccc(-c2cccnc2)n1 (stereo partly shown) [EXAMPLE 9]             nM              15
6  Cc1ccc(NC(=O)c2ccc3c(c2)CC[C@H]3N2CCN(C)CC2)cc1Nc1nccc(-c2cncnc2)n1 [EXAMPLE 14]             nM              65
7  Cc1ccc(NC(=O)c2ccc3c(c2)CC[C@@H]3N2CCN(C)CC2)cc1Nc1nccc(-c2ccncc2)n1 [EXAMPLE 15]             nM              24

# credit: patent US8703771B2
